Target: UniProt:Q9GZQ6
Test: NPFF1 calcium mobilization assay
Format: cell-based
Details: calcium mobilization assay
REPORTED_METRIC: NPFF1 antagonist activity (in words)

INSERT INTO assay_data (compound, assay_system, result) VALUES
  ('CCN(CC)C(=O)[C@@H]1C[C@H](NCc2ccc(OC)cc2)CN1Cc1ccccc1Cl [Compound 22]', 'UniProt:Q9GZQ6', 'inactive'),
  ('CCNC(=O)[C@@H]1C[C@H](NCc2ccc(OC)cc2)CN1Cc1ccccc1Cl [Compound 11]', 'UniProt:Q9GZQ6', 'inactive'),
  ('CNC(=O)[C@@H]1C[C@H](NCc2ccc(OC)cc2)CN1Cc1ccccc1Cl [Compound 10]', 'UniProt:Q9GZQ6', 'inactive');

====

Target: human NPFF1 receptor (Homo sapiens, UniProt Q9GZQ6)
Sequence (Q9GZQ6 whole entry): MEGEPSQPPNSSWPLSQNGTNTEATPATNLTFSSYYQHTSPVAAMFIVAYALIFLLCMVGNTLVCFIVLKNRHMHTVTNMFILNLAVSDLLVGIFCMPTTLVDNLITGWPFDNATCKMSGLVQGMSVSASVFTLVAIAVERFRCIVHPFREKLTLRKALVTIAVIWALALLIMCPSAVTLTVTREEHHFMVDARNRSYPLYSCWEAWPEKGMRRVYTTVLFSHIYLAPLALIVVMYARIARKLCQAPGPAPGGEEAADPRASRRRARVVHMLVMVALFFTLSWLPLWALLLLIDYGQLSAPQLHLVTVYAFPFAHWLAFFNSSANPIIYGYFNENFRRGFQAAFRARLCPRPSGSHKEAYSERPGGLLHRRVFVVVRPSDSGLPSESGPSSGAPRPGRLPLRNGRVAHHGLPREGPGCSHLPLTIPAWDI
Assay: NPFF1 calcium mobilization assay
Format: cell-based
Settings: Table 1; apparent Ke from right shift of NPFF curve; 15 min pretreatment
# Ca^2+ NPFF1 Ke annotations
REPORTED_METRIC: Ca^2+ NPFF1 Ke (µM)

INSERT INTO assay_data (molecule, result_units, result) VALUES
  ('CCC(C)NC(=O)[C@@H]1C[C@H](NCc2ccc(OC)cc2)CN1Cc1ccccc1Cl (stereo partly drawn) [Compound 14]', 'µM', 1.50),
  ('CCN(CC)C(=O)[C@@H]1C[C@H](NCc2ccc(OC)cc2)CN1Cc1ccccc1Cl [Compound 40]', 'µM', 2.90),
  ('CCCCNC(=O)[C@@H]1C[C@H](NCc2ccc(OC)cc2)CN1Cc1ccccc1Cl [Compound 13]', 'µM', 1.24),
  ('COc1ccc(CN[C@H]2C[C@@H](C(=O)NC(C)(C)C)N(Cc3ccccc3Cl)C2)cc1 [Compound 15]', 'µM', 1.88);

====

Molecular target: human NPFF1 receptor (Homo sapiens, UniProt Q9GZQ6)
Test: NPFF1 calcium mobilization assay
pIC50: −log10 of the molar value.
REPORTED_METRIC: pIC50

INSERT INTO measurements (chemical_smiles, result) VALUES
  ('COc1ccc(CN[C@H]2C[C@@H](C(=O)NCCCc3ccccc3)N(Cc3ccccc3Cl)C2)cc1', '< 5.00');

====

Molecular target: human NPFFR2 (Homo sapiens)
Sequence (Q9Y5X5 whole entry): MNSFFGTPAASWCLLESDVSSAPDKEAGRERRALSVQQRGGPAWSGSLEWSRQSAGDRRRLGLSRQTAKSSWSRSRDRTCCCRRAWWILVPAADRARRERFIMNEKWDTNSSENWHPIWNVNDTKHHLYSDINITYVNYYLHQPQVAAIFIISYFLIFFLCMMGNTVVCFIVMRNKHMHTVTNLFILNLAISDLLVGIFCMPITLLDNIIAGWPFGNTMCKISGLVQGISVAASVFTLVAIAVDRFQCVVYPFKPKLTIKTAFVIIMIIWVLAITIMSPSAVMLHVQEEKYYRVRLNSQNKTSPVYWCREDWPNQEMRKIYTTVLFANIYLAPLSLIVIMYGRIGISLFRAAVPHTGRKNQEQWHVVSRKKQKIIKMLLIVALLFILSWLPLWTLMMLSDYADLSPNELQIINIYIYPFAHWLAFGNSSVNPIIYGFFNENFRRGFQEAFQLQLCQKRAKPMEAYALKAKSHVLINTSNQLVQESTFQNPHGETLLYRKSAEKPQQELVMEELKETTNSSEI
Assay: Lance cAMP assay, NPFFR2-CHO cells
Type: cell-based
REPORTED_METRIC: Kb

INSERT INTO results (molecule, reported_metric, result) VALUES
  ('COc1ccc(CN[C@H]2C[C@@H](C(=O)NCCc3ccc(OC)c(OC)c3)N(Cc3ccccc3Cl)C2)cc1 [Compound 27]', 'Kb', '> 10000 nM'),
  ('CCCN(CCC)C(=O)[C@@H]1C[C@H](NCc2ccc(OC)cc2)CN1Cc1ccccc1Cl [Compound 41]', 'Kb', '> 10000 nM'),
  ('CCCCCCNC(=O)[C@@H]1C[C@H](NCc2ccc(OC)cc2)CN1Cc1ccccc1Cl [Compound 18]', 'Kb', '2480 nM'),
  ('CCCCCNC(=O)[C@@H]1C[C@H](NCc2ccc(SC)cc2)CN1Cc1ccccc1Cl [Compound 43]', 'Kb', '2740 nM'),
  ('COc1ccc(CN[C@H]2C[C@@H](C(=O)NCCc3ccc(Cl)cc3)N(Cc3ccccc3Cl)C2)cc1 [Compound 32]', 'Kb', '2530 nM'),
  ('COc1ccc(CN[C@H]2C[C@@H](C(=O)NCCc3ccc(F)cc3)N(Cc3ccccc3Cl)C2)cc1 [Compound 35]', 'Kb', '> 10000 nM'),
  ('CSc1ccc(CN[C@H]2C[C@@H](C(=O)NCCc3ccccc3)N(Cc3ccccc3Cl)C2)cc1 [Compound 44]', 'Kb', '> 10000 nM'),
  ('CSc1ccc(CN[C@H]2C[C@@H](C(=O)NCCc3ccc(F)c(F)c3)N(Cc3ccccc3Cl)C2)cc1 [Compound 47]', 'Kb', '> 10000 nM');

====

Biological target: human NPFF2 receptor (Homo sapiens, UniProt Q9Y5X5)
Experiment: NPFF2 calcium mobilization assay
Format: cell-based
# Kb annotations
REPORTED_METRIC: Kb (nM)

INSERT INTO results (chemical_smiles, result) VALUES
  ('COc1ccc(CN[C@H]2C[C@@H](C(=O)NCCc3ccc(C(C)(C)C)cc3)N(Cc3ccccc3Cl)C2)cc1', 2420),
  ('COc1ccc(CN[C@H]2C[C@@H](C(=O)NCCc3ccc(N(C)C)cc3)N(Cc3ccccc3Cl)C2)cc1', 2080),
  ('COc1ccc(CN[C@H]2C[C@@H](C(=O)NCCc3ccc(F)c(F)c3)N(Cc3ccccc3Cl)C2)cc1', 3490),
  ('COc1ccc(CN[C@H]2C[C@@H](C(=O)NCCc3ccc(Cl)cc3)N(Cc3ccccc3Cl)C2)cc1', 1830),
  ('COc1ccc(CN[C@H]2C[C@@H](C(=O)NCCc3ccccc3)N(Cc3ccccc3Cl)C2)cc1', 2340);
